In this section, each of the molecules is paired with its reported MNTC.
test: Cytotoxicity against human HeLa cells
Assay type: cell-based
particulars: read-out: MNCC

Solved cases below.
> print(dat)
                                querysmiles       result
1    O=c1cc(CCl)oc(CN2CC=C(c3ccccc3)CC2)c1O  ≥ 256 µg/mL
2     O=c1cc(CCl)oc(CN2CCN(c3ccccc3)CC2)c1O  ≥ 256 µg/mL
3  O=c1cc(CCl)oc(CN2CCN(Cc3c(Cl)cccc3Cl)CC2)c1O  ≥ 256 µg/mL
4  N#CC1(c2ccccc2)CCN(Cc2oc(CCl)cc(=O)c2O)CC1  ≥ 256 µg/mL
5   Cc1ccccc1CN1CCN(Cc2oc(CCl)cc(=O)c2O)CC1  ≥ 512 µg/mL

Would you mind telling me what MNTC value was observed for CC(=O)c1ccc(N2CCN(Cc3oc(CCl)cc(=O)c3O)CC2)cc1 ?
≥ 512 µg/mL

Entry O=C(OCc1ccccc1)N1CCN(Cc2oc(CCl)cc(=O)c2O)CC1 has what MNTC?
≥ 256 µg/mL

# input molecule: O=C(C1CCCCC1)N1CCN(Cc2oc(CCl)cc(=O)c2O)CC1 ; wanted: its MNTC
≥ 128 µg/mL

Requested read-out: MNTC. Entry: O=c1cc(CCl)oc(CN2CCN(Cc3ccccc3)CC2)c1O
≥ 512 µg/mL

Which MNTC value is on record for Cc1cccc(N2CCN(Cc3oc(CCl)cc(=O)c3O)CC2)c1C ?
≥ 256 µg/mL

Please report the recorded MNTC for O=c1cc(CCl)oc(CN2CC=C(c3ccc(F)cc3)CC2)c1O .
≥ 256 µg/mL
